Cited source: the supplement of paper PMC9938120

# Tested on: FMOC06 (patient-derived mucinous ovarian cancer cells)
# Test Name: drug sensitivity score (DSS3, normalised partial AUC of % inhibition dose-response) (DSS (score)); higher = more sensitive (stronger inhibition of viability); extreme values may be limits of the assay
# Experimental Context: 72 h; library: FO5A; assay format: 2D, 384-well, CellTiter-Glo
# binarize drug sensitivity score: threshold 0.6 inclusive, high side Condition met, low side Condition not met

Solved cases below.
INSERT INTO measurements (compound, class_label) VALUES
  ('Cn1cc(-c2ccc(F)c(C(F)(F)F)c2)nc1C1CCN(c2ncnc3[nH]ncc23)CC1', 'Condition not met'),
  ('S=C(NCc1ccc2c(c1)OCO2)N1CCN(c2ncnc3c2oc2ccccc23)CC1 [Amuvatinib]', 'Condition met'),
  ('CO[C@H](C(=O)[C@@H](O)[C@@H](C)O)[C@@H]1Cc2cc3cc(O[C@H]4C[C@@H](O[C@@H]5C[C@@H](O)[C@H](O)[C@@H](C)O5)[C@H](O)[C@@H](C)O4)c(C)c(O)c3c(O)c2C(=O)[C@H]1O[C@H]1C[C@@H](O[C@@H]2C[C@@H](O)[C@@H](O[C@@H]3C[C@](C)(O)[C@H](O)[C@@H](C)O3)[C@@H](C)O2)[C@H](O)[C@@H](C)O1 [Plicamycin]', 'Condition met'),
  ('C[C@]1(c2nc3c(C(N)=O)cccc3[nH]2)CCCN1 [Veliparib]', 'Condition not met');

Attention now turns to another entry.
Check this compound for drug sensitivity score at or above 0.6: CC[C@@H]1CN(C(=O)NCC(F)(F)F)C[C@@H]1c1cnc2cnc3[nH]ccc3n12 [Upadacitinib]
Condition met

====

# Test system: FMOC02_3 (patient-derived low-grade serous ovarian cancer cells)
# Test Name: drug sensitivity score (DSS3, normalised partial AUC of % inhibition dose-response) (DSS (score)); higher = more sensitive (stronger inhibition of viability); extreme values may be limits of the assay
# Experimental Context: 72 h; library: FO5A; assay format: 2D, 384-well, CellTiter-Glo
Reported drug sensitivity score values for a set of compounds
Field format: numeric only.

Worked set:
INSERT INTO results (compound, system_tested, measurement) VALUES
  ('CC(C)NC[C@@H](C(=O)N1CCN(c2ncnc3c2[C@H](C)C[C@H]3O)CC1)c1ccc(Cl)cc1', 'FMOC02_3', 14.3),
  ('O=C(Nc1ccncc1)C(=O)c1cn(Cc2ccc(Cl)cc2)c2ccccc12', 'FMOC02_3', 9.6),
  ('CC(C)c1cc(-c2n[nH]c(=O)n2-c2ccc3c(ccn3C)c2)c(O)cc1O', 'FMOC02_3', 19.7),
  ('C1=N/C2=N/c3ccc(OCCN4CCCC4)c(c3)COC/C=C/COCc3cccc(c3)C(=C1)N2', 'FMOC02_3', 15.2),
  ('Clc1ccc(Nc2nnc(Cc3ccncc3)c3ccccc23)cc1', 'FMOC02_3', 0),
  ('Cc1c(F)cc(C(=O)NC2CC2)cc1-c1ccc(C(=O)NCC(C)(C)C)cn1', 'FMOC02_3', 0);

Using the record for `C[C@]1(O)C[C@@H](c2nc(-c3ccc4ccc(-c5ccccc5)nc4c3)c3c(N)nccn32)C1` , report its drug sensitivity score.
6.9

Same lookup for `CCS(=O)(=O)N1CCN(c2ccc(Nc3ncc(C(N)=O)c(NC4CC4)n3)cc2)CC1` , please.
0

Input `COc1ccc(CCc2nc3cc(-c4c(C)noc4C)ccc3n2C[C@H](C)N2CCOCC2)cc1Cl`
2

Cool, now `C=CC(=O)N1CCC[C@@H](n2nc(-c3ccc(Oc4ccccc4)cc3)c3c(N)ncnc32)C1`
7.3

Another compound: `CC(C)C[C@H](NC(=O)[C@@H](COC(C)(C)C)NC(=O)[C@H](Cc1ccc(O)cc1)NC(=O)[C@H](CO)NC(=O)[C@H](Cc1c[nH]c2ccccc12)NC(=O)[C@H](Cc1cnc[nH]1)NC(=O)[C@@H]1CCC(=O)N1)C(=O)N[C@@H](CCCNC(=N)N)C(=O)N1CCC[C@H]1C(=O)NNC(N)=O`
0

Now consider `C[C@@H]1CCN(C(=O)CC#N)C[C@@H]1N(C)c1ncnc2[nH]ccc12` and answer again.
0.1

Field entry: `CCNc1nc(Nc2cc(F)c(C(=O)N3CCOCC3)cc2OC)ncc1C(F)(F)F`
1

Try CC(O)(CS(=O)(=O)c1ccc(F)cc1)C(=O)Nc1ccc(C#N)c(C(F)(F)F)c1 (stereo not given) [Bicalutamide] next.
0

What do we get for `CCOc1cc2ncc(C#N)c(Nc3ccc(OCc4ccccn4)c(Cl)c3)c2cc1NC(=O)/C=C/CN(C)C` ?
18.3
